Sourced from paper PMC7316143

- target: DAT (Rattus norvegicus)
- Sequence (P23977 whole entry): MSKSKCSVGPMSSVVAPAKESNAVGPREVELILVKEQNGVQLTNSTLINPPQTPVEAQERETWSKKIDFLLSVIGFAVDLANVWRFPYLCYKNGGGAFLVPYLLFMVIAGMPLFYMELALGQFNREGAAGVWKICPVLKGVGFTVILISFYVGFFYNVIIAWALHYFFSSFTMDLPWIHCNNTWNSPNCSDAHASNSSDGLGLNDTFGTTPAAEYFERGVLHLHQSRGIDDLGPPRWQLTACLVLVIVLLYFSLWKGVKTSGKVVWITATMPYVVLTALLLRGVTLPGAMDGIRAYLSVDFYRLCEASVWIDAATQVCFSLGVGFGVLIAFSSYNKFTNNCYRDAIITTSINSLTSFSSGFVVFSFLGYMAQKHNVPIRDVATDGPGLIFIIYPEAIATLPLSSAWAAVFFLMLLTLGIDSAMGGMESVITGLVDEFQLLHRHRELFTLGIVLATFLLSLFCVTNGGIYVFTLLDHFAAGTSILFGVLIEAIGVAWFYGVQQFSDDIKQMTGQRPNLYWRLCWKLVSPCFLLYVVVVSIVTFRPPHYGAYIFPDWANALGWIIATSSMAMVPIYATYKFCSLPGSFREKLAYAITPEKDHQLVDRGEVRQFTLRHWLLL
- test method notes: [3H]MPP+ release at DAT in rat brain synaptosomes
Assignment: determine reported pEC50 for the given compounds.
Scale: negative log10 of molar concentration, which is what pEC50 denotes.

Task item: Fill in reported pEC50 for this entry: CC1NCCOC1c1ccccc1 (stereo not shown) [Phenmetrazine, 3-methyl-2-phenylmorpholine, reference compound]
Reply: 7.15

Task item: Fill in reported pEC50 for this entry: Cc1ccccc1C1OCCNC1C (stereo not shown)
Reply: 6.43

Task item: Fill in reported pEC50 for this entry: Cc1ccc(C2OCCNC2C)cc1 (stereo not shown)
Reply: 6.64

Task item: Fill in reported pEC50 for this entry: Cc1cccc(C2OCCNC2C)c1 (stereo not shown)
Reply: 5.88
